Can you tell me inhibition at 0.1 µM for the items I'm about to list?
Target: KRAS-G12D protein (Homo sapiens, UniProt P01116, G12D)
Construct: host or cells: Aspc-1 cells
Sequence (P01116 1-188 isoform P01116-2 G12D): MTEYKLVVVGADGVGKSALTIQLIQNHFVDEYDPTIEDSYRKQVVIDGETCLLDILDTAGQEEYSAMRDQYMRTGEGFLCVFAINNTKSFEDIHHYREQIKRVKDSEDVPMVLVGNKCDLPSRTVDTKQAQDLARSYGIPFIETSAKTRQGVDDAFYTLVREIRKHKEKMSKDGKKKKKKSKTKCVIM
Test: KRAS-G12D protein degradation study in Aspc-1 cells (western blot)
Format: cell-based
Details: ASPC1, 24 h, Aspc-1 cells treated with 0.1 μM compound, 24 hours; read-out: Rate of protein degradation (KRAS^G12D)

Q. Tell me the measured inhibition at 0.1 µM of C#Cc1c(F)ccc2cc(O)cc(-c3ncc4c(N5CC6CCC(C5)N6)nc(O[C@@H]5CCN(CCCCCCCCCCC(=O)N[C@H](C(=O)N6C[C@H](O)C[C@H]6C(=O)N[C@@H](C)c6ccc(-c7scnc7C)cc6)C(C)(C)C)C5)nc4c3F)c12 [Compound 86] , please.
A. 31 to 60%

Q. Tell me the measured inhibition at 0.1 µM of C#Cc1c(F)ccc2cc(O)cc(-c3ncc4c(N5CC6CCC(C5)N6)nc(O[C@H]5CCN(CCCCCCCCCC(=O)N[C@H](C(=O)N6C[C@H](O)C[C@H]6C(=O)N[C@@H](C)c6ccc(-c7scnc7C)cc6)C(C)(C)C)C5)nc4c3F)c12 [Compound 83] , please.
A. 11 to 30%

Q. Tell me the measured inhibition at 0.1 µM of C#Cc1c(F)ccc2cc(O)cc(-c3ncc4c(N5CC6CCC(C5)N6)nc(OC5CCN(CCCCCCCCCCCCOc6cc(-c7ncsc7C)ccc6CNC(=O)[C@@H]6C[C@@H](O)CN6C(=O)[C@@H](NC(=O)C6(F)CC6)C(C)(C)C)CC5)nc4c3F)c12 [Compound 78] , please.
A. ≤ 10%

Q. Tell me the measured inhibition at 0.1 µM of C#Cc1c(F)ccc2cc(O)cc(-c3ncc4c(N5CC6CCC(C5)N6)nc(OCCCN5CCN(CCC(=O)C6CCC(c7ccc8c(C9CCC(=O)NC9=O)nn(C)c8c7)CC6)CC5)nc4c3F)c12 (stereo not drawn) [Compound 74] , please.
A. 31 to 60%

Q. Tell me the measured inhibition at 0.1 µM of C#Cc1c(F)ccc2cc(O)cc(-c3ncc4c(N5CC6CCC(C5)N6)nc(OCCCN5CCN(CC(=O)N6CCN(c7ccc8c(c7)C(=O)N(C7CCC(=O)NC7=O)C8=O)CC6)CC5)nc4c3F)c12 (stereo not drawn) [Compound 59] , please.
A. ≤ 10%

Q. Tell me the measured inhibition at 0.1 µM of C#Cc1c(F)ccc2cc(O)cc(-c3ncc4c(N5CC6CCC(C5)N6)nc(O[C@@H]5CCN(CCCCCCCCCC(=O)N[C@H](C(=O)N6C[C@H](O)C[C@H]6C(=O)N[C@@H](C)c6ccc(-c7scnc7C)cc6)C(C)(C)C)C5)nc4c3F)c12 [Compound 88] , please.
A. ≤ 10%

Q. Tell me the measured inhibition at 0.1 µM of C#Cc1c(F)ccc2cc(O)cc(-c3ncc4c(N5CC6CCC(C5)N6)nc(OCCCN5CCN(CC(=O)N6CCN(C(=O)C[C@H](NC(=O)[C@@H]7C[C@@H](O)CN7C(=O)[C@@H](NC(=O)C7(F)CC7)C(C)(C)C)c7ccc(-c8scnc8C)cc7)CC6)CC5)nc4c3F)c12 [Compound 63] , please.
A. ≤ 10%

Q. Tell me the measured inhibition at 0.1 µM of C#Cc1c(F)ccc2cc(O)cc(-c3ncc4c(N5CC6CCC(C5)N6)nc(OC5CCN(CCCCCCCCCCC(=O)N[C@H](C(=O)N6C[C@H](O)C[C@H]6C(=O)N[C@@H](C)c6ccc(-c7scnc7C)cc6)C(C)(C)C)C5)nc4c3F)c12 (stereo partly drawn) [Compound 55] , please.
A. > 60%

Q. Tell me the measured inhibition at 0.1 µM of C#Cc1c(F)ccc2cc(O)cc(-c3ncc4c(N5CC6CCC(C5)N6)nc(OC5CCN(CC(=O)N6CCC7(CC6)CC(N6CCC(c8ccc9c(C%10CCC(=O)NC%10=O)nn(C)c9c8)CC6)C7)CC5)nc4c3F)c12 (stereo not drawn) [Compound 82] , please.
A. > 60%

From: patent US20230321253A1
